B1: Tyrosine-protein kinase BTK, residues 215 to 273; numbered along this chain, Q06187 (parent)
chain: ELKKVVALYDYMPMNANDLQLRKGDEYFILEESNLPWWRARDKNGQEGYIPSNYVTEAE

Variants of: B1
measurement-protocol: abundance fitness (aPCA) (normalised: wild type 0, dead -1); higher = more abundant; growth selection in yeast, the domain comes from the species named
test-context: Homo sapiens
Rule: MET for abundance fitness not less than -0.05, NOT MET for anything less.

{"residue-change": "R39E", "label-value": "NOT MET"}
{"residue-change": "K23H", "label-value": "MET"}
{"residue-change": "S52F", "label-value": "NOT MET"}
{"residue-change": "G24T", "label-value": "NOT MET"}
{"residue-change": "D42I", "label-value": "NOT MET"}
{"residue-change": "E26N", "label-value": "NOT MET"}
{"residue-change": "E32R", "label-value": "MET"}
{"residue-change": "E59T", "label-value": "MET"}
{"residue-change": "Q46M", "label-value": "NOT MET"}
{"residue-change": "P51Y", "label-value": "MET"}
{"residue-change": "A40N", "label-value": "NOT MET"}
